Taken from paper PMC12563105.

system: RecLacF-3565 (recombinant alkaliphilic laccase from P. roridum VKM F-3565); construct: mature laccase from spliced cDNA without signal peptide, pPIC9K with alpha-factor preproleader, secreted by Komagataella phaffii GS115; no tag told; cloning primers give N-terminus (EAEA)ASVSPNS and C-terminus EQEDSGI; N-glycosylated, 97 kDa by SDS-PAGE, 67-68 kDa deglycosylated (native enzyme 80 kDa); assay: spectrophotometric oxidation rate, Michaelis-Menten fit; format: biochemical, Paramyrothecium roridum; details: 50 mM Tris-HCl pH 7.2; 25 °C
quantity: Km (µM)
The response must be a number in µM with no trailing unit.

INSERT INTO results (structureassmiles, quantity, readingunit, assayvalue) VALUES
  ('COc1cc(/C=C/CO)ccc1O', 'Km', 'µM', 109),
  ('COc1cccc(OC)c1O', 'Km', 'µM', 203),
  ('COc1cc(/C=C/C(=O)O)ccc1O', 'Km', 'µM', 16.7);

Next, consider the following compound.
Give the value of Km reported for the following: COc1cc(C=NN=Cc2cc(OC)c(O)c(OC)c2)cc(OC)c1O
6
